Each recorded value in this set is attributed to paper PMC9398717.

Readings of Cmax for the listed compounds
# PROTOCOL_SUMMARY: Pharmacokinetic study in normal and arthritic model rats after oral administration of APR extract (UPLC-MS/MS of plasma)
# STATED_CONDITIONS: Sprague-Dawley, rat, plasma, po, 4.1 mL/kg, C max, arthritic model rats (complete Freund's adjuvant), oral APR extract 4.1 mL/kg, mean ± SD, n = 6
Enter your answer as a number in ng/mL; do not include the unit.

Study these solved cases before continuing.
{"columns": ["COMPOUND", "READOUT_UNITS", "Cmax"],
 "data": [
  ["O=C(/C=C/c1ccc(O)c(O)c1)O[C@@H]1[C@H](O)C[C@@](O)(C(=O)O)C[C@H]1OC(=O)/C=C/c1ccc(O)c(O)c1", "ng/mL", 79.7],
  ["O=C(C=Cc1ccc(O)c(O)c1)OC1CC(O)(C(=O)O)CC(OC(=O)C=Cc2ccc(O)c(O)c2)C1O (stereo not drawn)", "ng/mL", 405]
]}

Here is another compound to look at.
So what's the measured Cmax for this one? O=C(C=Cc1ccc(O)c(O)c1)OC1CC(O)(C(=O)O)CC(O)C1O (stereo not drawn) 531
